Test system: High Density cholesterol (Chl Large) plaque particles
Experimental Protocol: Mass spectroscopy proteomics, semi-quantitative binding affinity of serum proteins (plaqueproteome, Table 2)
Design: species or system human
Setup Conditions: higher number = stronger affinity
I'd be grateful if you could share measured Semi-quantitative analysis of proteins binding to different plaque particles: Chl Large for these entries.
Answers are plain numbers.

{"Molecule": "Peroxiredoxin-1 (protein) SSGNAKIGHPAPNFKATAVMPDGQFKDISLSDYKGKYVVFFFYPLDFTFVCPTEIIAFSDRAEEFKKLNCQVIGASVDSHFCHLAWVNTPKKQGGLGPMNIPLVSDPKRTIAQDYGVLKADEGISFRGLFIIDDKGILRQITVNDLPVGRSVDETLRLVQAFQFTDKHGEVCPAGWKPGSDTIKPDVQKSKEYFSKQK", "Measured Value": 0}
{"Molecule": "Ig alpha-2 chain C region (protein) ASPTSPKVFPLSLDSTPQDGNVVVACLVQGFFPQEPLSVTWSESGQNVTARNFPPSQDASGDLYTTSSQLTLPATQCPDGKSVTCHVKHYTNSSQDVTVPCRVPPPPPCCHPRLSLHRPALEDLLLGSEANLTCTLTGLRDASGATFTWTPSSGKSAVQGPPERDLCGCYSVSSVLPGCAQPWNHGETFTCTAAHPELKTPLTANITKSGNTFRPEVHLLPPPSEELALNELVTLTCLARGFSPKDVLVRWLQGSQELPREKYLTWASRQEPSQGTTTYAVTSILRVAAEDWKKGETFSCMVGHEALPLAFTQKTIDRMAGKPTHINVSVVMAEADGTCY", "Measured Value": 9}
{"Molecule": "Serum paraoxonase/arylesterase (protein) AKLIALTLLGMGLALFRNHQSSYQTRLNALREVQPVELPNCNLVKGIETGSEDLEILPNGLAFISSGLKYPGIKSFNPNSPGKILLMDLNEEDPTVLELGITGSKFDVSSFNPHGISTFTDEDNAMYLLVVNHPDAKSTVELFKFQEEEKSLLHLKTIRHKLLPNLNDIVAVGPEHFYGTNDHYFLDPYLQSWEMYLGLAWSYVVYYSPSEVRVVAEGFDFANGINISPDGKYVYIAELLAHKIHVYEKHANWTLTPLKSLDFNTLVDNISVDPETGDLWVGCHPNGMKIFFYDSENPPASEVLRIQNILTEEPKVTQVYAENGTVLQGSTVASVYKGKLLIGTVFHKALYCEL", "Measured Value": 5}
{"Molecule": "Protein AMBP (protein) GPVPTPPDNIQVQENFNISRIYGKWYNLAIGSTCPWLKKIMDRMTVSTLVLGEGATEAEISMTSTRWRKGVCEETSGAYEKTDTDGKFLYHKSKWNITMESYVVHTNYDEYAIFLTKKFSRHHGPTITAKLYGRAPQLRETLLQDFRVVAQGVGIPEDSIFTMADRGECVPGEQEPEPILIPRVRRAVLPQEEEGSGGGQLVTEVTKKEDSCQLGYSAGPCMGMTSRYFYNGTSMACETFQYGGCMGNGNNFVTEKECLQTCRTVAACNLPIVRGPCRAFIQLWAFDAVKGKCVLFPYGGCQGNGNKFYSEKECREYCGVPGDGDEELLRFSN", "Measured Value": 5}

Request: Quick one: Semi-quantitative analysis of proteins binding to different plaque particles: Chl Large for Beta-2-glycoprotein 1 (protein) GRTCPKPDDLPFSTVVPLKTFYEPGEEITYSCKPGYVSRGGMRKFICPLTGLWPINTLKCTPRVCPFAGILENGAVRYTTFEYPNTISFSCNTGFYLNGADSAKCTEEGKWSPELPVCAPIICPPPSIPTFATLRVYKPSAGNNSLYRDTAVFECLPQHAMFGNDTITCTTHGNWTKLPECREVKCPFPSRPDNGFVNYPAKPTLYYKDKATFGCHDGYSLDGPEEIECTKLGNWSAMPSCKASCKVPVKKATVVYQGERVKIQEKFKNGMLHGDKVSFFCKNKEKKCSYTEDAQCIDGTIEVPKCFKEHSSLAFWKTDASDVKPC ?
Result: 6
